Assay: Acute toxicity, LD50 (mouse, oral administration)
Settings: in vivo
Assign LD50 to each entry below.

Q: For the compound CO[C@@]1(NC(=O)[C@H](NC(=O)c2coc3cc(O)c(O)cc3c2=O)c2ccc(O)cc2)C(=O)N2C(C(=O)O)=C(COC(N)=O)CS[C@@H]21 , give its measured LD50 value.
Result: > 4000 mg/kg

Q: For the compound NC(=O)OCC1=C(C(=O)O)N2C(=O)[C@@H](NC(=O)[C@H](NC(=O)c3coc4cc(O)c(O)cc4c3=O)c3ccc(O)cc3)[C@H]2SC1 , give its measured LD50 value.
Result: > 4000 mg/kg

Q: For the compound CO[C@@]1(NC(=O)[C@H](NC(=O)c2coc3cc(O)c(O)cc3c2=O)c2ccc(O)cc2)C(=O)N2C(C(=O)O)=C(COC(=O)NC(=O)C(Cl)(Cl)Cl)CS[C@@H]21 , give its measured LD50 value.
Result: > 4000 mg/kg
